- Species: Rattus norvegicus
- Method Notes: Inhibition of rat liver mitochondrial ATPase assessed as specific activity at 0.42 mM relative to control
- Set-up: scale not given: the % may be the effect or the level left
Each entry gets false if its Activity stays under 80%, and true if its Activity is 80% or above.

Answered cases to consult:
Compound	Class Label
O=c1cc(-c2ccc(O)cc2)oc2cc(O)cc(O)c12 [APIGENIN]	true
O=c1cc(-c2ccccc2)oc2cc(O)ccc12 [7-HYDROXYFLAVONE]	true
O=c1c(O)c(-c2ccc(O)c(O)c2)oc2cc(O)ccc12 [FISETIN]	false
O=c1c(-c2ccc(O)cc2)coc2cc(O)cc(O)c12 [GENISTEIN]	false
O=c1c(O)c(-c2ccccc2)oc2cc(O)cc(O)c12 [GALANGIN]	true
O=c1cc(-c2ccccc2)oc2ccccc12 [FLAVONE]	false
O=c1c(O)c(-c2cc(O)c(O)c(O)c2)oc2cc(O)cc(O)c12 [MYRICETIN]	false
O=C1C[C@@H](c2ccc(O)cc2)Oc2cc(O)cc(O)c21 [NARINGENIN]	false

Problem: Assess whether reported Activity for O=c1c(O)c(-c2ccc(O)c(O)c2)oc2cc(O)cc(O)c12 [QUERCETIN] sits at 80% or higher.
Solution: false

----------
- Method Notes: Inhibition of beef heart mitochondrial NADH oxidase assessed per mg of protein
- Parameters: species or system Bos taurus
- Condition Summary: read-out: I50
We begin with a simple list: items and their reported IC50.
Your answer is read as nmol/mg, so omit the unit and give the number.

Compound	IC50 / nmol/mg
O=c1cc(-c2ccc(O)cc2)oc2cc(O)cc(O)c12	920

Problem: Requested field: IC50. Item: `O=c1c(O)c(-c2ccc(O)c(O)c2)oc2cc(O)cc(O)c12`
Solution: 145

----------
- Species on record: Rattus norvegicus
- Method Notes: Inhibition of rat liver mitochondrial ATPase assessed as specific activity at 0.42 mM relative to control
- Set-up: scale not given: the % may be the effect or the level left
Activity listing for selected molecules.
Write the value in % as a bare number.

Molecule	Activity, %
O=c1c(O)c(-c2ccc(O)cc2)oc2cc(O)cc(O)c12	94.2
COc1ccc(-c2oc3cc(O)cc(O)c3c(=O)c2O)cc1	96.1

Problem: Which Activity value is on record for O=C1CC(c2ccccc2)Oc2ccccc21 (stereo not drawn) ?
Solution: 73.4

Problem: Please answer likewise for `COc1ccc(-c2cc(=O)c3c(O)cc(O)cc3o2)cc1`
Solution: 98.7

Problem: Now the same for `C[C@@H]1O[C@@H](OC[C@H]2O[C@@H](Oc3c(-c4ccc(O)c(O)c4)oc4cc(O)cc(O)c4c3=O)[C@H](O)[C@@H](O)[C@@H]2O)[C@H](O)[C@H](O)[C@H]1O`
Solution: 66.5

----------
- Organism: Bos taurus
- Method Notes: Inhibition of beef heart mitochondrial succinoxidase assessed as specific activity at 0.35 mM preincubated for 15 mins relative to control
- Parameters: scale not given: the % may be the effect or the level left
Quantity: Activity (%)
Just the number in %, nothing appended.

Compound	Scale Unit	Activity
O=C1CC(c2ccccc2)Oc2ccccc21 (stereo not drawn)	%	84.8
COc1ccccc1-c1cc(=O)c2c(OC)cccc2o1	%	80.8
O=c1cc(-c2ccc(O)cc2)oc2cc(O)cc(O)c12	%	93.8

Problem: # get_value(readout='Activity', item= `C[C@@H]1O[C@@H](OC[C@H]2O[C@@H](Oc3c(-c4ccc(O)c(O)c4)oc4cc(O)cc(O)c4c3=O)[C@H](O)[C@@H](O)[C@@H]2O)[C@H](O)[C@H](O)[C@H]1O` )
Solution: 66.7

Problem: Request: `O=c1c(O)c(-c2ccc(O)cc2)oc2cc(O)cc(O)c12`
Solution: 84.4

Problem: Follow-up item: `O=c1c(O)c(-c2ccc(O)c(O)c2)oc2cc(O)ccc12`
Solution: 9.6

Problem: Try the compound `O=c1c(O)c(-c2cc(O)c(O)c(O)c2)oc2cc(O)cc(O)c12`
Solution: 14.7

Problem: And what about the compound `O=c1c(O)c(-c2ccc(O)c(O)c2)oc2cc(O)cc(O)c12` ?
Solution: 21.8

Problem: Next: `O=c1c(O)c(-c2ccc(O)cc2O)oc2cc(O)cc(O)c12`
Solution: 31.5

Problem: Try the compound `O=C1C[C@@H](c2ccc(O)cc2)Oc2cc(O)cc(O)c21`
Solution: 84.8

Problem: How about this compound: `O=c1cc(-c2ccccc2)oc2ccccc12`
Solution: 82

Problem: And the next one, O=c1cc(-c2ccccc2)oc2cc(O)ccc12 [7-HYDROXYFLAVONE] ?
Solution: 91.3

Problem: Could you do the same for `COc1ccc(-c2oc3cc(O)cc(O)c3c(=O)c2O)cc1` , please?
Solution: 98.7

Problem: Can you check `O=c1c(-c2ccc(O)cc2)coc2cc(O)cc(O)c12` next?
Solution: 98.3

Problem: Same again, this time with `COc1ccc(-c2cc(=O)c3c(O)cc(O)cc3o2)cc1`
Solution: 99.3

Problem: Thanks! And `O=c1c(O)c(-c2ccccc2)oc2cc(O)cc(O)c12` ?
Solution: 92.4

Problem: Queued: `O=c1cc(-c2ccccc2)oc2cc(O)cc(O)c12`
Solution: 75.8

Problem: Query O=c1cc(-c2ccccc2)oc2cccc(O)c12 [5-HYDROXYFLAVONE] next
Solution: 95.7
